test: Cmax in NMRI-nu/nu mouse at 100 mg/kg,po measured upto 24 hrs by HPLC-MS/MS analysis; assay type: ADME, organism-based; design: time < 24 hrs, dose 100 mg/kg, route po; settings: in vivo
Cmax values, listed per item
Provide only the numeric value, understood in nM.

Cc1cc(N2CCOCC2)cnc1NC(=O)c1cc(C(=O)NCc2ccc(F)c(F)c2)c(F)cc1Cl: 73

Reported Cmax for Cc1cc(OC(F)F)ccc1NC(=O)c1cc(C(=O)NCc2ccc(F)cc2)c(F)cc1Cl was 2100

Reported Cmax for CC(C)(O)c1ccc(NC(=O)c2cc(C(=O)NCc3ccc(F)c(F)c3)c(F)cc2Cl)cc1 was 3.2
